Test system: 8505C (thyroid carcinoma)
experimentDescription: SRB cytotoxicity assay, 8505C
Assay type: cell-based, human
conditionDescription: SI = EC50 (NIH 3T3)/EC50 (8505C)
metric: Selectivity index (SI) 8505C

Some solved entries appear below for comparison.
• C[C@@H]1CC[C@]2(C(=O)NCCN)CC[C@]3(C)C(=CCC4[C@@]5(C)CC[C@H](O)C(C)(C)C5CC[C@]43C)C2[C@H]1C (stereo partly drawn) = 1.05
• C=C(C)C1CC[C@]2(C(=O)NCCN(C)C)CC[C@]3(C)C(CCC4[C@@]5(C)CC[C@H](OC(C)=O)C(C)(C)C5CC[C@]43C)C12 (stereo partly drawn) = 0.71
• C=C(C)C1CC[C@]2(C(=O)NCCCCN)CC[C@]3(C)C(CCC4[C@@]5(C)CC[C@H](OC(C)=O)C(C)(C)C5CC[C@]43C)C12 (stereo partly drawn) = 0.43
• C=C(C)C1CC[C@]2(C(=O)NCCN3CCCCC3)CC[C@]3(C)C(CCC4[C@@]5(C)CC[C@H](O)C(C)(C)C5CC[C@]43C)C12 (stereo partly drawn) = 0.50
• C=C(C)C1CC[C@]2(C(=O)NCCCCN)CC[C@]3(C)C(CCC4[C@@]5(C)CC[C@H](O)C(C)(C)C5CC[C@]43C)C12 (stereo partly drawn) = 0.63
• CC(=O)O[C@H]1CC[C@@]2(C)C(CC[C@]3(C)C2CC=C2C4[C@@H](C)[C@H](C)CC[C@]4(C(=O)NCCN4CCCCC4)CC[C@]23C)C1(C)C (stereo partly drawn) = 0.46

Prompt line: Read the entry CC(=O)O[C@H]1CC[C@@]2(C)C(CC[C@]3(C)C2CC=C2C4[C@@H](C)[C@H](C)CC[C@]4(C(=O)NCCN)CC[C@]23C)C1(C)C (stereo partly drawn) and write its reported Selectivity index (SI) 8505C.
Response line: 0.63

Prompt line: Read the entry C[C@@H]1CC[C@]2(C(=O)NCCCCN)CC[C@]3(C)C(=CCC4[C@@]5(C)CC[C@H](O)C(C)(C)C5CC[C@]43C)C2[C@H]1C (stereo partly drawn) and write its reported Selectivity index (SI) 8505C.
Response line: 0.52

====

System: A2780 (ovarian carcinoma)
experimentDescription: SRB cytotoxicity assay, A2780
Type: cell-based, human
conditionDescription: SI = EC50 (NIH 3T3)/EC50 (A2780)
metric: Selectivity index (SI) A2780
Number only, please.

Some solved entries appear below for comparison.
* C[C@@H]1CC[C@]2(C(=O)NCCOCCN)CC[C@]3(C)C(=CCC4[C@@]5(C)CC[C@H](O)C(C)(C)C5CC[C@]43C)C2[C@H]1C (stereo partly drawn) [Compound 16] | 1.15
* C=C(C)C1CC[C@]2(C(=O)NCCN3CCNCC3)CC[C@]3(C)C(CCC4[C@@]5(C)CC[C@H](OC(C)=O)C(C)(C)C5CC[C@]43C)C12 (stereo partly drawn) [Compound 21] | 0.67
* C=C(C)C1CC[C@]2(C(=O)NCCN(C)C)CC[C@]3(C)C(CCC4[C@@]5(C)CC[C@H](OC(C)=O)C(C)(C)C5CC[C@]43C)C12 (stereo partly drawn) [Compound 18] | 0.91
* C=C(C)C1CC[C@]2(C(=O)NCCN(C)C)CC[C@]3(C)C(CCC4[C@@]5(C)CC[C@H](O)C(C)(C)C5CC[C@]43C)C12 (stereo partly drawn) [Compound 25] | 1.50
* C=C(C)C1CC[C@]2(C(=O)NCCN3CCNCC3)CC[C@]3(C)C(CCC4[C@@]5(C)CC[C@H](O)C(C)(C)C5CC[C@]43C)C12 (stereo partly drawn) [Compound 28] | 1.00

// next entry
Prompt line: Look up A2780 (ovarian carcinoma) data: Selectivity index (SI) A2780 of C=C(C)C1CC[C@]2(C(=O)NCCN)CC[C@]3(C)C(CCC4[C@@]5(C)CC[C@H](OC(C)=O)C(C)(C)C5CC[C@]43C)C12 (stereo partly drawn) [Compound 17] , then report it.
Response line: 1.00

====

System: HT29 (colon adenocarcinoma)
experimentDescription: SRB cytotoxicity assay, HT29
Assay type: cell-based, human
conditionDescription: SI = EC50 (NIH 3T3)/EC50 (HT29)
metric: Selectivity index (SI) HT29
Number only, please.

• C[C@@H]1CC[C@]2(C(=O)NCCN3CCCCC3)CC[C@]3(C)C(=CCC4[C@@]5(C)CC[C@H](O)C(C)(C)C5CC[C@]43C)C2[C@H]1C (stereo partly drawn) = 0.42
• C=C(C)C1CC[C@]2(C(=O)NCCN(C)C)CC[C@]3(C)C(CCC4[C@@]5(C)CC[C@H](O)C(C)(C)C5CC[C@]43C)C12 (stereo partly drawn) = 1.00
• C=C(C)C1CC[C@]2(C(=O)NCCCCN)CC[C@]3(C)C(CCC4[C@@]5(C)CC[C@H](O)C(C)(C)C5CC[C@]43C)C12 (stereo partly drawn) = 1.25
• C=C(C)C1CC[C@]2(C(=O)NCCN3CCNCC3)CC[C@]3(C)C(CCC4[C@@]5(C)CC[C@H](OC(C)=O)C(C)(C)C5CC[C@]43C)C12 (stereo partly drawn) = 1.67
• CC(=O)O[C@H]1CC[C@@]2(C)C(CC[C@]3(C)C2CC=C2C4[C@@H](C)[C@H](C)CC[C@]4(C(=O)NCCCCN)CC[C@]23C)C1(C)C (stereo partly drawn) = 0.76

// next entry
Prompt line: Read the entry C=C(C)C1CC[C@]2(C(=O)NCCN(C)C)CC[C@]3(C)C(CCC4[C@@]5(C)CC[C@H](OC(C)=O)C(C)(C)C5CC[C@]43C)C12 (stereo partly drawn) and write its reported Selectivity index (SI) HT29.
Response line: 3.33

====

Tested on: 518A2 (melanoma)
experimentDescription: SRB cytotoxicity assay, 518A2
Format: cell-based, human
conditionDescription: SI = EC50 (NIH 3T3)/EC50 (518A2)
metric: Selectivity index (SI) 518A2

Some solved entries appear below for comparison.
* C=C(C)[C@@H]1CC[C@]2(C(=O)O)CC[C@]3(C)[C@H](CC[C@@H]4[C@@]5(C)CC[C@H](O)C(C)(C)[C@@H]5CC[C@]43C)[C@@H]12 [BA, betulinic acid, reference compound] | 1.39
* C=C(C)C1CC[C@]2(C(=O)NCCN(C)C)CC[C@]3(C)C(CCC4[C@@]5(C)CC[C@H](O)C(C)(C)C5CC[C@]43C)C12 (stereo partly drawn) | 1.00

// next entry
Prompt line: Read the entry `C[C@H]1[C@H](C)CC[C@]2(C(=O)O)CC[C@]3(C)C(=CC[C@@H]4[C@@]5(C)CC[C@H](O)C(C)(C)[C@@H]5CC[C@]43C)[C@H]12` and write its reported Selectivity index (SI) 518A2.
Response line: 1.27

====

# Selectivity index (SI) HT29 values compiled below
Test system: HT29 (colon adenocarcinoma)
experimentDescription: SRB cytotoxicity assay, HT29
Assay type: cell-based, human
conditionDescription: SI = EC50 (NIH 3T3)/EC50 (HT29)
Protocol: The cytotoxicity of ursolic and betulinic carboxamides 3–30 was determined in sulforhodamine B (SRB) assays. […] The cytotoxicity of the compounds was evaluated using the sulforhodamine-B (Kiton-Red S, ABCR) micro culture colorimetric assay. […] Tris base solution (200 µL, 10 mM) was added to each well and absorbance was measured at λ = 570 nm using a 96-well plate reader (Tecan Spectra, Crailsheim, Germany). […]
Number only, please.

Some solved entries appear below for comparison.
• C=C(C)C1CC[C@]2(C(=O)NCCN3CCCC3)CC[C@]3(C)C(CCC4[C@@]5(C)CC[C@H](OC(C)=O)C(C)(C)C5CC[C@]43C)C12 (stereo partly drawn) [Compound 19] = 2.40
• CC(=O)O[C@H]1CC[C@@]2(C)C(CC[C@]3(C)C2CC=C2C4[C@@H](C)[C@H](C)CC[C@]4(C(=O)NCCN)CC[C@]23C)C1(C)C (stereo partly drawn) [Compound 3] = 1.44

// next entry
Prompt line: Read the entry C[C@@H]1CC[C@]2(C(=O)NCCN3CCNCC3)CC[C@]3(C)C(=CCC4[C@@]5(C)CC[C@H](O)C(C)(C)C5CC[C@]43C)C2[C@H]1C (stereo partly drawn) [Compound 14] and write its reported Selectivity index (SI) HT29.
Response line: 2.36

====

# melting point values compiled below

Some solved entries appear below for comparison.
* CC(=O)O[C@H]1CC[C@@]2(C)C(CC[C@]3(C)C2CC=C2C4[C@@H](C)[C@H](C)CC[C@]4(C(=O)NCCN4CCCC4)CC[C@]23C)C1(C)C (stereo partly drawn) | 156 to 159 °C
* CC(=O)O[C@H]1CC[C@@]2(C)C(CC[C@]3(C)C2CC=C2C4[C@@H](C)[C@H](C)CC[C@]4(C(=O)NCCOCCN)CC[C@]23C)C1(C)C (stereo partly drawn) | 91 to 94 °C
* C[C@@H]1CC[C@]2(C(=O)NCCN3CCNCC3)CC[C@]3(C)C(=CCC4[C@@]5(C)CC[C@H](O)C(C)(C)C5CC[C@]43C)C2[C@H]1C (stereo partly drawn) | 214 to 217 °C

Prompt line: Read the entry C[C@@H]1CC[C@]2(C(=O)NCCN)CC[C@]3(C)C(=CCC4[C@@]5(C)CC[C@H](O)C(C)(C)C5CC[C@]43C)C2[C@H]1C (stereo partly drawn) and write its reported melting point.
Response line: 139 to 142 °C

Prompt line: Read the entry C=C(C)C1CC[C@]2(C(=O)NCCN3CCNCC3)CC[C@]3(C)C(CCC4[C@@]5(C)CC[C@H](OC(C)=O)C(C)(C)C5CC[C@]43C)C12 (stereo partly drawn) and write its reported melting point.
Response line: 107 to 110 °C

Prompt line: Read the entry C[C@@H]1CC[C@]2(C(=O)NCCN3CCCC3)CC[C@]3(C)C(=CCC4[C@@]5(C)CC[C@H](O)C(C)(C)C5CC[C@]43C)C2[C@H]1C (stereo partly drawn) and write its reported melting point.
Response line: 263 to 266 °C (dec.)
